Molecular target: Androgen receptor (Homo sapiens, UniProt P10275)
Sequence (P10275 whole entry): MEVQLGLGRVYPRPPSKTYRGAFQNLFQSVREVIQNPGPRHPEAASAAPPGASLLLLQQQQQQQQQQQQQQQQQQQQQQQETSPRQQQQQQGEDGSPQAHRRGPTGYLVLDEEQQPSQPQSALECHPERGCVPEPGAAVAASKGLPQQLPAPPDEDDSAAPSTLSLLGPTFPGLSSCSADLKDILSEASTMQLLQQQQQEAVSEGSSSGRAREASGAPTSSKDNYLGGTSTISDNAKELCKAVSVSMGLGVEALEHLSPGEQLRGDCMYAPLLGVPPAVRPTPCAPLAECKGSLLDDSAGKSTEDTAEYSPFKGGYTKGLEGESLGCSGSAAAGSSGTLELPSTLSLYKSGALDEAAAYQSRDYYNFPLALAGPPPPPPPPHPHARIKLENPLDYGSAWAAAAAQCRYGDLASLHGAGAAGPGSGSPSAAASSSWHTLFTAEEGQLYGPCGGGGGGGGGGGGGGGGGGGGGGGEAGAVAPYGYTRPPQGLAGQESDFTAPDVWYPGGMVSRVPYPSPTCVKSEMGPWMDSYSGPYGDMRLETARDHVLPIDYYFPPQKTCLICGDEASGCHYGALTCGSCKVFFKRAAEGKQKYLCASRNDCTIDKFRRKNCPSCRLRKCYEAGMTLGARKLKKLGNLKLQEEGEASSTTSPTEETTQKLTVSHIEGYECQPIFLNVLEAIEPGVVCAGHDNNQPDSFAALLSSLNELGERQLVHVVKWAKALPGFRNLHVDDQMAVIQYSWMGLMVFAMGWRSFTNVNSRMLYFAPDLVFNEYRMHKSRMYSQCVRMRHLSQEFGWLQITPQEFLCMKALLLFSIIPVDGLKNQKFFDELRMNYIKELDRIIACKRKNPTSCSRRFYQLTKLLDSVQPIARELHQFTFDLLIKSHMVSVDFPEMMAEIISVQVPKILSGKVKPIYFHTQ
Assay: Inhibition of full length AR transcriptional activity in human LNCAP cells harboring AR2PB-eGFP construct assessed as reduction in R1881-induced secreted PSA level after 72 hrs by fluorescence assay
Assay type: cell-based
parameter_measured: IC50
Please report the result as a number followed by the unit.

These recorded examples may help you get a feel for the data.
query_smiles | measured_result
COc1ccc(C=C2c3cccc(Cl)c3C(=O)c3c(Cl)cccc32)c(OC)c1O | 170 nM
COc1ccc(C=C2c3cccc(Cl)c3C(=O)c3c(Cl)cccc32)cc1O | 340 nM
COc1cccc(C=C2c3cccc(Cl)c3C(=O)c3c(Cl)cccc32)c1O | 730 nM
O=C1c2ccccc2C(=Cc2cccc(O)c2)c2ccccc21 | 350 nM

Continue with the next compound.
The value of IC50 measured for the compound `COc1ccc(C=C2c3ccccc3C(=O)c3ccccc32)c(O)c1` turned out to be 100 nM

meta.source: ChEMBL document CHEMBL4270637
